target: human Kv1.3 (hKv1.3) channels (Homo sapiens (Human), UniProt P22001); test: Electrophysiological (whole-cell patch clamp) determination of inhibitory activity on Kv1.3 channels; assay type: cell-based; details: HEK-293T; compound concentration 10 nM; HEK293T cells expressing hKv1.3; peak current inhibition; read-out: 10 nM inhibition rate (Kv1.3)
Sequence (P22001 whole entry): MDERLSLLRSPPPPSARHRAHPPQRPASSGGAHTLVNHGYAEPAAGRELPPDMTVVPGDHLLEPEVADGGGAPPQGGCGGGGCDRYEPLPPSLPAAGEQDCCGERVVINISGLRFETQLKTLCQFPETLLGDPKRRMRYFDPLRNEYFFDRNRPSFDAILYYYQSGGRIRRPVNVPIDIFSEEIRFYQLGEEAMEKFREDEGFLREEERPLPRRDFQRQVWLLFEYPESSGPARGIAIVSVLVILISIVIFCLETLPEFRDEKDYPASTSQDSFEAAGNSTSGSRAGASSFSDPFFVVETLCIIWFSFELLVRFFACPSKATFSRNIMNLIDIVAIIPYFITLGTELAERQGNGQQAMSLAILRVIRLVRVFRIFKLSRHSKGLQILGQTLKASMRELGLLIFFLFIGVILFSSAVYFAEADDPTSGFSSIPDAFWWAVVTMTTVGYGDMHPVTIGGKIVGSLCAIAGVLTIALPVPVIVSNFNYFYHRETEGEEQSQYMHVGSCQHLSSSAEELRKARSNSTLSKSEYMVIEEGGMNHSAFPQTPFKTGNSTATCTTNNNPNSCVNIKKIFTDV
I'd be grateful if you could share measured inhibition at 0.01 µM for these entries.

Can you share its inhibition at 0.01 µM? I mean this compound: O=C(CCN1CC(c2c(O)ccc(Cl)c2Cl)CC1=O)NO (stereo not drawn)
25 to 50%

Can you share its inhibition at 0.01 µM? I mean this compound: CS(=O)(=O)NCCCN1CC(c2c(O)ccc(Cl)c2Cl)CC1=O (stereo not drawn)
0 to 5%

Can you share its inhibition at 0.01 µM? I mean this compound: O=C1N(CCCO)CC(c2c(O)ccc(Cl)c2Cl)C12CC2 (racemic)
< 0%

Can you share its inhibition at 0.01 µM? I mean this compound: NOCCCN1CC(c2c(O)ccc(Cl)c2Cl)CC1=O (stereo not drawn)
< 0%

Can you share its inhibition at 0.01 µM? I mean this compound: NOCCN1CC(c2c(O)ccc(Cl)c2Cl)CC1=O (stereo not drawn)
0 to 5%

Can you share its inhibition at 0.01 µM? I mean this compound: O=C1CC(c2c(O)ccc(Cl)c2Cl)CN1CCCNO (racemic)
≥ 75%

Can you share its inhibition at 0.01 µM? I mean this compound: Oc1ccc(Cl)c(Cl)c1C1CC(=S)N(C[C@H]2C[C@@H](O)C2)C1 (mixture of isomers)
0 to 5%

Can you share its inhibition at 0.01 µM? I mean this compound: CONCCCN1CC(c2c(O)ccc(Cl)c2Cl)CC1=O (stereo not drawn)
0 to 5%

Can you share its inhibition at 0.01 µM? I mean this compound: Oc1ccc(Cl)c(Cl)c1C1CC(=S)N(C2CC3(CNC3)C2)C1 (racemic)
25 to 50%

----------
biological target: human Kv1.3 (hKv1.3) channels (Homo sapiens (Human)); experiment: Electrophysiological (whole-cell patch clamp) determination of inhibitory activity on Kv1.3 channels; format: cell-based; conditions: HEK-293T; compound concentration 10 nM; HEK293T cells expressing hKv1.3; peak current inhibition; read-out: 10 nM inhibition rate (Kv1.3)
I'd be grateful if you could share measured inhibition at 0.01 µM for these entries.

Can you share its inhibition at 0.01 µM? I mean this compound: OC[C@H]1C[C@@H](N2CC(c3c(O)ccc(Cl)c3Cl)CC2=S)C1 (mixture of isomers)
0 to 5%

Can you share its inhibition at 0.01 µM? I mean this compound: CS(=O)(=O)CCN1CC(c2c(O)ccc(Cl)c2Cl)CC1=O (stereo not drawn)
< 0%

Can you share its inhibition at 0.01 µM? I mean this compound: CS(=O)(=O)n1cc(N2CC(c3c(O)ccc(Cl)c3Cl)CC2=O)cn1 (racemic)
50 to 75%

Can you share its inhibition at 0.01 µM? I mean this compound: OCC1(CN2CC(c3c(O)ccc(Cl)c3Cl)CC2=S)CC1 (racemic)
0 to 5%

Can you share its inhibition at 0.01 µM? I mean this compound: ONCCCN1CC(c2c(O)ccc(Cl)c2Cl)CC1=S (racemic)
0 to 5%

Can you share its inhibition at 0.01 µM? I mean this compound: Oc1ccc(Cl)c(Cl)c1C1CC(=S)N(c2cnn3c2CCC3)C1 (racemic)
25 to 50%
